test system: MV4;11 cells; test: Cell viability assay (CellTiter-Glo) in MV4;11 cells, alone or with gilteritinib; assay type: cell-based; details: Homo sapiens, MV4-11, 72 h, MV4;11 cells, compound with gilteritinib 10 nM, three days, CellTiter-Glo; read-out: MV4; 11 IC50 gilteritinib
pIC50: −log10 of the molar value.
Quantity Kind: pIC50

• O=C1CCC(N2C(=O)c3ccc(NCCC[C@H]4C[C@@H](n5cc(-c6cnc7cc(C8CCNCC8)ccc7n6)cn5)C4)cc3C2=O)C(=O)N1 (stereo partly shown) = > 8.00
• O=C1CCC(N2C(=O)c3ccc(NCC4CC(n5cc(-c6cnc7ccccc7n6)cn5)C4)cc3C2=O)C(=O)N1 (stereo not shown) = 7.00 to 8.00
• Cc1cccc2nc(-c3cnn(CCCCCCNc4ccc5c(c4)C(=O)N(C4CCC(=O)NC4=O)C5=O)c3)cnc12 (stereo not shown) = 7.00 to 8.00
• Cc1nn([C@H]2C[C@@H](CCCNc3ccc4c(c3)C(=O)N(C3CCC(=O)NC3=O)C4=O)C2)cc1-c1cnc2cc(N3CCNCC3)ccc2n1 (stereo partly shown) = > 8.00
• Cc1cccc(-c2cn([C@H]3C[C@H](CNc4ccc5c(c4)C(=O)N(C4CCC(=O)NC4=O)C5=O)C3)nc2C2CCNCC2)n1 (stereo partly shown) = < 6.00
• O=C1CCC(N2C(=O)c3ccc(NC[C@H]4C[C@H](n5cc(-c6ncccc6N6CCNCC6)c(C6CC6)n5)C4)cc3C2=O)C(=O)N1 (stereo partly shown) = > 8.00
• O=C1CCC(N2C(=O)c3ccc(NCCC[C@H]4C[C@H](n5cc(-c6cccc(N7CCC7)n6)cn5)C4)cc3C2=O)C(=O)N1 (stereo partly shown) = 7.00 to 8.00
• Cc1nn([C@H]2C[C@@H](CCCNc3ccc4c(c3)C(=O)N(C3CCC(=O)NC3=O)C4=O)C2)cc1-c1cnc2cc(N3CCN(C)CC3)ccc2n1 (stereo partly shown) = > 8.00
• CN1C(=O)CCC(N2C(=O)c3ccc(NCCC[C@H]4C[C@H](n5cc(-c6cnc7ccccc7n6)c(C6CC6)n5)C4)cc3C2=O)C1=O (stereo partly shown) = < 6.00
• O=C1CCC(N2C(=O)c3ccc(NC[C@H]4C[C@H](n5cc(-c6ccc(Cl)cc6)c(C6CC6)n5)C4)cc3C2=O)C(=O)N1 (stereo partly shown) = 7.00 to 8.00
• O=C1CCC(N2C(=O)c3ccc(NC[C@H]4C[C@H](n5cc(N6CCNCC6)c(C6CC6)n5)C4)cc3C2=O)C(=O)N1 (stereo partly shown) = < 6.00
• O=C1CCC(N2C(=O)c3ccc(CC[C@H]4C[C@H](n5cc(-c6cnc7ccccc7n6)c(C6CC6)n5)C4)cc3C2=O)C(=O)N1 (stereo partly shown) = < 6.00
• O=C1CCC(N2C(=O)c3ccc(NCCCCCCn4cc(-c5cnc6ccc(N7CCOCC7)cc6n5)c(C5CC5)n4)cc3C2=O)C(=O)N1 (stereo not shown) = > 8.00

The origin of these recorded values is patent US20240050428A1.
